test system: Phospholipidosis; assay: Literature-mined public compounds from Lowe et al phospholipidosis modelling dataset
reported metric: Phospholipidosis

compound	Phospholipidosis
CN(C)CCN(Cc1cccs1)c1ccccn1	Negative
COc1cc2c(c(OC)c1OC)-c1ccc(OC)c(=O)cc1[C@@H](NC(C)=O)CC2 [COLCHICINE]	Negative
Nc1c2c(nc3ccccc13)CCCC2 [TACRINE]	Negative
CN(C)C/C=C(/c1ccc(Br)cc1)c1cccnc1 [ZIMELDINE]	Positive

As a next step, examine the compound that follows.
Incoming: Given Cc1cccc(CN2CCN(C(c3ccccc3)c3ccc(Cl)cc3)CC2)c1 (stereo not given) [MECLIZINE] , state its recorded Phospholipidosis.
Outgoing: Positive

====

tested on: Phospholipidosis; assay: Literature-mined public compounds from Lowe et al phospholipidosis modelling dataset
reported metric: Phospholipidosis

Some compounds with known Phospholipidosis results, for comparison:
compound	Phospholipidosis
O=C(NC1CCN(CCc2c[nH]c3ccccc23)CC1)c1ccccc1	Positive
CCCN[C@@H]1[C@H](C)[C@@H](O)[C@](C)(O)[C@@H](CC)OC(=O)[C@H](C)[C@@H](O[C@H]2C[C@@](C)(OC)[C@@H](O)[C@H](C)O2)[C@H](C)[C@@H](O[C@@H]2O[C@H](C)C[C@H](N(C)C)[C@H]2O)[C@](C)(O)C[C@H]1C	Positive
Clc1ccccc1CNC[C@H]1CC[C@H](CNCc2ccccc2Cl)CC1	Positive
CCN(CC)CCCC(C)Nc1c2ccc(Cl)cc2nc2ccc(OC)cc12 (stereo not drawn)	Positive
NC(=O)N1c2ccccc2C=Cc2ccccc21 [CARBAMAZEPINE]	Negative
CC1=CC(=O)c2ccccc2C1=O	Negative
CN[C@@H]1[C@H](O)[C@H](NC)[C@H]2O[C@@]3(O)C(=O)C[C@@H](C)O[C@H]3O[C@@H]2[C@H]1O	Positive
ClC(Cl)(Cl)Cl [CARBON TETRACHLORIDE]	Negative
CN(C)CCC=C1c2ccccc2CCc2c(Cl)cccc21	Positive
Cc1ccc2cc3c(ccc4ccccc43)c3c2c1CC3	Negative

Incoming: Given `CN[C@@H]1[C@@H](O)[C@@H](O[C@@H]2[C@@H](O)[C@H](O[C@H]3O[C@H]([C@@H](C)NC)CC[C@H]3N)[C@@H](N)C[C@H]2N)OC[C@]1(C)O` , state its recorded Phospholipidosis.
Outgoing: Positive

Incoming: Given CC1=C(CC(=O)O)c2cc(F)ccc2/C1=C\c1ccc([S+](C)[O-])cc1 (stereo not drawn) , state its recorded Phospholipidosis.
Outgoing: Negative

Incoming: Given `Oc1ncnc2[nH]ncc12` , state its recorded Phospholipidosis.
Outgoing: Positive

Incoming: Given O=C(NCC1CCCCN1)c1cc(OCC(F)(F)F)ccc1OCC(F)(F)F (stereo not drawn) [FLECAINIDE] , state its recorded Phospholipidosis.
Outgoing: Negative

Incoming: Given `CCC[C@@H](NC(=O)N1C(=O)C(CC)(CC)[C@@H]1Oc1ccc(C(=O)N2CCN(C)CC2)cc1)c1ccc2c(c1)OCO2` , state its recorded Phospholipidosis.
Outgoing: Positive

Incoming: Given NN [HYDRAZINE] , state its recorded Phospholipidosis.
Outgoing: Negative

====

system: Phospholipidosis; assay: Literature-mined public compounds from Lowe et al phospholipidosis modelling dataset
reported metric: Phospholipidosis

molecular string	measurement target	measurement
CO[C@H]1/C=C/O[C@@]2(C)Oc3c(C)c(O)c4c(O)c(c(/C=N/N5CCN(C)CC5)c(O)c4c3C2=O)NC(=O)/C(C)=C\C=C\[C@H](C)[C@H](O)[C@@H](C)[C@@H](O)[C@@H](C)[C@H](OC(C)=O)[C@@H]1C	Phospholipidosis	Negative
CN(C)[C@@H]1C(O)=C(C(N)=O)C(=O)[C@@]2(O)C(O)=C3C(=O)c4c(O)ccc(Cl)c4[C@@H](O)[C@H]3C[C@@H]12	Phospholipidosis	Negative
